Values compiled from patent US20240182456A1.

So I've got a bunch of compounds here, and I need their AUC(0-inf) values.
PROTOCOL_SUMMARY: Pharmacokinetics in C57BL/6 mice (i.v. and oral)
STATED_CONDITIONS: male, C57BL/6, mouse, whole blood, iv, 1 mg/kg
Could you write the number and then its unit?

COMPOUND_STRUCTURE: Cc1nc(CN2CCC(c3cccc4c3O[C@@](C)(c3ccc(Cl)cc3F)O4)CC2)n(C[C@@H]2CCO2)c1/C=C/C(=O)O
AUC(0-inf): 5.02 µM·h

Next compound, AUC(0-inf) to be filled in.
Requested read-out: AUC(0-inf). Entry: `C[C@]1(c2ccc(Cl)cc2F)Oc2cccc(C3CCN(Cc4ncc(/C=C/C(=O)O)n4C[C@@H]4CCO4)CC3)c2O1` 0.509 µM·h

###

TESTED_TARGET: human GLP1R (hGLP1R) (Homo sapiens, UniProt P43220)
Sequence (P43220 24-463): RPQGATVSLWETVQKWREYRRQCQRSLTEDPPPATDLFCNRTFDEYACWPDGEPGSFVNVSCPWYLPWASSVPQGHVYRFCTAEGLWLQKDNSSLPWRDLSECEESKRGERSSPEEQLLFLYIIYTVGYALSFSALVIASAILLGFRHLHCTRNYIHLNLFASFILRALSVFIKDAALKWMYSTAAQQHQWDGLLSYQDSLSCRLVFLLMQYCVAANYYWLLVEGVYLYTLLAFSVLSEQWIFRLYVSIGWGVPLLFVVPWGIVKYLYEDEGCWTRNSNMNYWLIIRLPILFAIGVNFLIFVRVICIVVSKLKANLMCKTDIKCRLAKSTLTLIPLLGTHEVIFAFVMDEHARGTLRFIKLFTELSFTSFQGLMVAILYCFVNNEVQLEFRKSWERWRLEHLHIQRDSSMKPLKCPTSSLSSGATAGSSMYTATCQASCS
PROTOCOL_SUMMARY: Human GLP1R β-arrestin recruitment assay (PathHunter)
Format: cell-based
Parameters: insert synthesized by GeneArt 93-0164 (cells); 93-0491 (vector bundle)
STATED_CONDITIONS: CHO-hGLP1R-β-arrestin cells; mean n=2; read-out: Beta-Arrestin assay EC50 Mean
pEC50: −log10 of the molar value.
EXPERIMENTAL_ENDPOINT: pEC50

Here's what some known entries look like.
COMPOUND: C[C@]1(c2ccc(Cl)cc2F)Oc2cccc(C3CCN(Cc4nc5ccc(C(=O)O)cc5n4C[C@@H]4CCO4)CC3)c2O1 [Reference compound, reference compound]
MEASURED: 6.91
--
COMPOUND: C[C@]1(c2ccc(Cl)cc2F)Oc2cccc(C3CCN(Cc4nc(/C=C/C(=O)O)cn4C[C@@H]4CCO4)CC3)c2O1 [Compound C-2]
MEASURED: < 4.52

Next compound, pEC50 to be filled in.
Requested read-out: pEC50. Entry: Cc1nc(CN2CCC(c3cccc4c3O[C@@](C)(c3ccc(Cl)cc3F)O4)CC2)n(C[C@@H]2CCO2)c1C(=O)O [Compound C-3] < 4.52

###

PROTOCOL_SUMMARY: in vivo
STATED_CONDITIONS: male, C57BL/6, mouse, in vivo, iv, 1 mg/kg
So I've got a bunch of compounds here, and I need their AUC(0-inf) values.
Answers are plain numbers, in µM·h.

COMPOUND: Cc1nc(CN2CCC(c3cccc4c3O[C@@](C)(c3ccc(Cl)cc3F)O4)CC2)n(C[C@@H]2CCO2)c1C(=O)O
EXPERIMENTAL_ENDPOINT: AUC(0-inf)
MEASURED: 2.79
//
COMPOUND: C[C@]1(c2ccc(Cl)cc2F)Oc2cccc(C3CCN(Cc4nc(C(F)(F)F)c(/C=C/C(=O)O)n4C[C@@H]4CCO4)CC3)c2O1
EXPERIMENTAL_ENDPOINT: AUC(0-inf)
MEASURED: 3.75

Next compound, AUC(0-inf) to be filled in.
Requested read-out: AUC(0-inf). Entry: C[C@]1(c2ccc(Cl)cc2F)Oc2cccc(C3CCN(Cc4nc5ccc(C(=O)O)cc5n4C[C@@H]4CCO4)CC3)c2O1 [compound 1, reference compound] 1.19

###

PROTOCOL_SUMMARY: in vivo
STATED_CONDITIONS: male, C57BL/6, mouse, in vivo, po, 3 mg/kg
Experimental: Blood concentration versus time profiles were obtained from 2 groups of 3 male mice. […] Bioanalysis: An aliquot of 10 μL of blood sample and matrix calibration standards were added to a 96-well plate. […] Samples were analyzed and quantified by LC-MS/MS using the conditions outlined below. […]
So I've got a bunch of molecules here, and I need their Tmax values.
Numbers only, in h.

Here's what some known entries look like.
MOLECULE: C[C@]1(c2ccc(Cl)cc2F)Oc2cccc(C3CCN(Cc4nc(C(F)(F)F)c(/C=C/C(=O)O)n4C[C@@H]4CCO4)CC3)c2O1 [Compound 8]
Tmax [h]: 1

MOLECULE: Cc1nc(CN2CCC(c3cccc4c3O[C@@](C)(c3ccc(Cl)cc3F)O4)CC2)n(C[C@@H]2CCO2)c1C(=O)O [Compound 3]
Tmax [h]: 0.667

Requested read-out: Tmax. Entry: C[C@]1(c2ccc(Cl)cc2F)Oc2cccc(C3CCN(Cc4nc5ccc(C(=O)O)cc5n4C[C@@H]4CCO4)CC3)c2O1 [compound 1, reference compound] 1

###

PROTOCOL_SUMMARY: Pharmacokinetics in C57BL/6 mice (i.v. and oral)
STATED_CONDITIONS: male, C57BL/6, mouse, whole blood, po, 3 mg/kg
EXPERIMENTAL_ENDPOINT: half-life (h)
Answers are plain numbers, in h.

COMPOUND_STRUCTURE: Cc1nc(CN2CCC(c3cccc4c3O[C@@](C)(c3ccc(Cl)cc3F)O4)CC2)n(C[C@@H]2CCO2)c1/C=C/C(=O)O
half-life / h: 2.82

Next compound, half-life to be filled in.
Requested read-out: half-life. Entry: `C[C@]1(c2ccc(Cl)cc2F)Oc2cccc(C3CCN(Cc4ncc(/C=C/C(=O)O)n4C[C@@H]4CCO4)CC3)c2O1` 1.22

###

So I've got a bunch of compounds here, and I need their EC50 values.
TESTED_TARGET: human GLP1R (hGLP1R) (Homo sapiens, UniProt P43220)
PROTOCOL_SUMMARY: Human GLP1R β-arrestin recruitment assay (PathHunter)
Assay type: cell-based
Set-up: insert synthesized by GeneArt 93-0164 (cells); 93-0491 (vector bundle)
STATED_CONDITIONS: CHO-hGLP1R-β-arrestin cells; mean n=2; read-out: Beta-Arrestin assay EC50 Mean
Method: Compounds 1 to 31 were tested in the following cellular assays that measure the intracellular cAMP concentration, beta-arrestin recruitment and receptor internalization. The cAMP is generated by the activation of GLP1R. […] The extent to which agonists recruited β-arrestin was measured using the PathHunter® β-arrestin assay (DiscoverX). […] Luminescence can be measured on a relevant detector. […] The EC50 value was calculated in μM. […]
Numbers only, in nM.

COMPOUND_STRUCTURE: Cc1nc(CN2CCC(c3cccc4c3O[C@@](C)(c3ccc(Cl)cc3F)O4)CC2)n(C[C@@H]2CCO2)c1/C=C/C(=O)O
UNITS_OF_MEASURE: nM
MEASURED: 404

Next compound, EC50 to be filled in.
Requested read-out: EC50. Entry: `C[C@]1(c2ccc(Cl)cc2F)Oc2cccc(C3CCN(Cc4ncc(/C=C/C(=O)O)n4C[C@@H]4CCO4)CC3)c2O1` 494

###

PROTOCOL_SUMMARY: in vivo
STATED_CONDITIONS: male, C57BL/6, mouse, in vivo, po, 3 mg/kg
So I've got a bunch of compounds here, and I need their Cmax values.
One number for each entry, in nM.

Here's what some known entries look like.
COMPOUND: C[C@]1(c2ccc(Cl)cc2F)Oc2cccc(C3CCN(Cc4nc(C(F)(F)F)c(/C=C/C(=O)O)n4C[C@@H]4CCO4)CC3)c2O1
Cmax / nM: 768
--
COMPOUND: Cc1nc(CN2CCC(c3cccc4c3O[C@@](C)(c3ccc(Cl)cc3F)O4)CC2)n(C[C@@H]2CCO2)c1C(=O)O
Cmax / nM: 1470

Requested read-out: Cmax. Entry: C[C@]1(c2ccc(Cl)cc2F)Oc2cccc(C3CCN(Cc4nc5ccc(C(=O)O)cc5n4C[C@@H]4CCO4)CC3)c2O1 [compound 1, reference compound] 430

###

TESTED_TARGET: human GLP1R (hGLP1R) (Homo sapiens, UniProt P43220)
PROTOCOL_SUMMARY: Human GLP1R β-arrestin recruitment assay (PathHunter)
Type: cell-based
Design: insert synthesized by GeneArt 93-0164 (cells); 93-0491 (vector bundle)
STATED_CONDITIONS: CHO-hGLP1R-β-arrestin cells; relative to GLP1(7-36); read-out: Beta-Arrestin assay Emax
Use y when the recorded Emax is no lower than 2%; use n when it is lower.

COMPOUND: C[C@]1(c2ccc(Cl)cc2F)Oc2cccc(C3CCN(Cc4nc5ccc(C(=O)O)cc5n4C[C@@H]4CCO4)CC3)c2O1 [Reference compound, reference compound]
CATEGORY: y
//
COMPOUND: Cc1nc(CN2CCC(c3cccc4c3O[C@@](C)(c3ccc(Cl)cc3F)O4)CC2)n(C[C@@H]2CCO2)c1/C=C/C(=O)O
CATEGORY: y
//
COMPOUND: C[C@]1(c2ccc(Cl)cc2F)Oc2cccc(C3CCN(Cc4nc(/C=C/C(=O)O)cn4C[C@@H]4CCO4)CC3)c2O1
CATEGORY: n
//
COMPOUND: Cc1nc(CN2CCC(c3cccc4c3O[C@@](C)(c3ccc(Cl)cc3F)O4)CC2)n(C[C@@H]2CCO2)c1C(=O)O
CATEGORY: n

Alright, here's another compound for you.
Would you say `C[C@]1(c2ccc(Cl)cc2F)Oc2cccc(C3CCN(Cc4ncc(/C=C/C(=O)O)n4C[C@@H]4CCO4)CC3)c2O1` shows Emax at minimum 2%? y
